# pKi against D(3) dopamine receptor (Homo sapiens, UniProt P35462), merged from multiple literature sources
# Sequence (P35462 whole entry): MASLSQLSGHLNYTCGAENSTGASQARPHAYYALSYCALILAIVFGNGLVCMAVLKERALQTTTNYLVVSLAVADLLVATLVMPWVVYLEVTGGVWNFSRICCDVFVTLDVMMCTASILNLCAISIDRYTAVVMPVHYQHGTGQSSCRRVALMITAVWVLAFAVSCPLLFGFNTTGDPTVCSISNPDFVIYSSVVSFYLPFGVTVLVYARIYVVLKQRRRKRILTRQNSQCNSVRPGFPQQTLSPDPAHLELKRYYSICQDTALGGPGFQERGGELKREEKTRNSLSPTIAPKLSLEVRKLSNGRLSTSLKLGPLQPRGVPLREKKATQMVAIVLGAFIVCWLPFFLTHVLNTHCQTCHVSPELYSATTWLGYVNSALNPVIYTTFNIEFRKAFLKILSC
Quick note: pKi means taking -log10 of the concentration in moles per liter.

>>> observed_measurement("CCCCNC(=O)c1cc2ccccc2[nH]1")
4.67
>>> observed_measurement("COc1ccccc1N1CCN(CCCCOc2ccc3scnc3c2)CC1")
8.07

Please examine the following record next.
Prompt: Requested field: pKi. Item: Cc1ccc(C2CCN(Cc3ccc4c(c3)OCC(=O)N4)CC2)cc1C
Completion: 6.07

====

pKi: −log10 of the molar value.
# merged literature set: pKi with D(3) dopamine receptor (Homo sapiens)
# binarize pKi: threshold 6 inclusive, high side true (1), low side false (0)

>>> class_label("O=C(NCCCN1CCN(c2ncccn2)CC1)NN(Cc1ccccc1)c1ccccc1")
"false (0)"
>>> class_label("CCc1cc(Cl)c(OC)c(C(=O)NC[C@@H]2CCCN2Cc2ccccc2)c1OCc1ccccc1")
"true (1)"
>>> class_label("CC(C)(C)c1nc(N2CCN(CCCCn3cccc(C(F)(F)F)c3=O)CC2)cc(C(F)(F)F)n1")
"true (1)"

Prompt: Quick check: does O=C(CCCN1CCN(c2ccc(Cl)cc2)CC1)c1cc2ccc1CCc1ccc(cc1)CC2 have pKi greater than or equal to 6?
Completion: true (1)

Prompt: Moving on to Cc1ccc2n1Cc1ccccc1C=C2N1CCN(C)CC1
Completion: true (1)

Prompt: Query O=C1CCc2ccccc2N1CCCCCN1CCN(c2ccccc2)CC1 next
Completion: true (1)

Prompt: Likewise for O=Cc1cccn1C1CCN(Cc2ccccc2)CC1 ?
Completion: false (0)

Prompt: Also check COc1ccccc1-c1cn(CCC(O)CN2CCN(c3ccccc3OC)CC2)nn1 (racemic)
Completion: true (1)

Prompt: Do the same for O=C(NCCCCN1CCN(c2cccc(Cl)c2Cl)CC1)c1ccc2ccccc2c1 please
Completion: true (1)
